// provenance: PubChem BioAssay AID588413

# MEASUREMENT_NOTES: blockers of Gli reporter signaling – luciferase luminescence, Sufu-KO-LIGHT cells, uHTS, primary screen (AID 588413);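 note: 0% = DMSO-treated cells and 100% = wells with medium but no cells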
# CONDITION: Sufu-KO-LIGHT fibroblasts, at 5 µM, hits give high values
About 2,500 (0.74%) of roughly 340,000 compounds were called active. The full list was thinned out, with actives kept by preference.

# COMPOUND, UOM, inhibition
data = [
    ("COC(=O)COc1cc(C)cc2oc(=O)c3c(c12)CCCC3", "%", -1.17),
    ("CCN(CC)CCOC(=O)c1cc2cc(COC)ccc2o1", "%", 0.39),
    ("O=C1NC(=O)C(CCc2ccccn2)(Cc2cccc(Cl)c2Cl)C(=O)N1c1ccc(Br)cc1 (stereo not given)", "%", 0.16),
    ("CCOP(=O)(OCC)C(NC(=O)c1ccc(C)cc1)C(Cl)(Cl)Cl (stereo not given)", "%", 2.77),
    ("O=C(O)CCn1cc(C=C2C(=O)NC(=S)NC2=O)c(-c2cccc(Br)c2)n1", "%", -2.59),
]
